# Target Under Test: Metabotropic glutamate receptor 5 (Homo sapiens, UniProt P41594)
# Sequence (P41594 whole entry): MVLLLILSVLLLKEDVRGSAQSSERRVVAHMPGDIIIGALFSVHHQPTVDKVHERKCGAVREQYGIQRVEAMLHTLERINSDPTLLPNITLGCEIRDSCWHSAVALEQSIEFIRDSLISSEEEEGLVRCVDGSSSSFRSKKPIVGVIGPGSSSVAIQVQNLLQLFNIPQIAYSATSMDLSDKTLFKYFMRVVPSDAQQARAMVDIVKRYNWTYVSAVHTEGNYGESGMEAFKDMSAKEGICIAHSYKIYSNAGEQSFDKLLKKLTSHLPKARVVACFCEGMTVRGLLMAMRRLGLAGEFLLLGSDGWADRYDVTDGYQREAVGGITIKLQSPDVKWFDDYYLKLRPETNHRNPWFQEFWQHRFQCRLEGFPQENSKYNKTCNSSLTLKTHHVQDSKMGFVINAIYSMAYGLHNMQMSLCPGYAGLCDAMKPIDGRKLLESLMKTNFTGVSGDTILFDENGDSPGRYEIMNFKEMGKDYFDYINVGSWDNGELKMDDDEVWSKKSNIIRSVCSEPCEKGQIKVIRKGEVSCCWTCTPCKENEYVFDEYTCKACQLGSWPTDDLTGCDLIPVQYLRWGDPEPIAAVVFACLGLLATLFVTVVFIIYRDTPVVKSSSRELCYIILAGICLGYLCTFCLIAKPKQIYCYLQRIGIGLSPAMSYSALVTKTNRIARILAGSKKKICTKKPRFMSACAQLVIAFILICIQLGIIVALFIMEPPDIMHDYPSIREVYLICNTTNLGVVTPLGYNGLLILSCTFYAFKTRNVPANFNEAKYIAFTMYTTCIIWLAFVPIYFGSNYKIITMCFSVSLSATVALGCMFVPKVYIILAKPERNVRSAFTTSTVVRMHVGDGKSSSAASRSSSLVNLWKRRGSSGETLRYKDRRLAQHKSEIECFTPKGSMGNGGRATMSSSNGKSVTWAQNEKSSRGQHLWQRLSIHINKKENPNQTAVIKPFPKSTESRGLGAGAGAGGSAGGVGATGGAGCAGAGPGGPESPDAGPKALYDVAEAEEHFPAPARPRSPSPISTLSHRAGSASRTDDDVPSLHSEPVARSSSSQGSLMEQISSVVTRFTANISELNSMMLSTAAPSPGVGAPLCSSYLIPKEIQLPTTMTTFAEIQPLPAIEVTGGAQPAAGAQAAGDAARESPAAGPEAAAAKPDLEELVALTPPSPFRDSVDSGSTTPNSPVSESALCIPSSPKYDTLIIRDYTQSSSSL
Assay Readout: EC50 (nM)

I: O=C1N[C@H](c2cccc(C#Cc3ccccc3)c2)[C@@H](c2cccc(F)c2)O1
II: COc1cccc([C@H]2OC(=O)N[C@@H]2c2cccc(C#Cc3ccccc3)c2)c1
III: O=C1N[C@H](c2cncc(C#Cc3cncc(F)c3)c2)[C@@H](c2ccc(F)cc2)O1
Method: rank(items above, key=EC50, ascending=True) Order the labels as requested and give them as your answer. III, I, II
(III: 6 nM, I: 15 nM, II: 29 nM)

====

# System: Plasma
# Experimental Protocol: Total plasma concentration in Sprague-Dawley rat at 0.1 mg/kg, sc
# Type: ADME, organism-based
# Condition Notes: in vivo
Assay Readout: concentration (nM)
Only the number, expressed in nM, is required.

State, in one line, measured concentration of O=C1N[C@H](c2cncc(C#Cc3ccccc3)c2)[C@@H](c2cc(F)ccc2F)O1 34

The origin of these recorded values is ChEMBL document CHEMBL3804767.
